target: gelatinase B (UniProt P14780 107-707, limits assumed); assay: cell-based or functional assay
Sequence (P14780 107-707 limits assumed): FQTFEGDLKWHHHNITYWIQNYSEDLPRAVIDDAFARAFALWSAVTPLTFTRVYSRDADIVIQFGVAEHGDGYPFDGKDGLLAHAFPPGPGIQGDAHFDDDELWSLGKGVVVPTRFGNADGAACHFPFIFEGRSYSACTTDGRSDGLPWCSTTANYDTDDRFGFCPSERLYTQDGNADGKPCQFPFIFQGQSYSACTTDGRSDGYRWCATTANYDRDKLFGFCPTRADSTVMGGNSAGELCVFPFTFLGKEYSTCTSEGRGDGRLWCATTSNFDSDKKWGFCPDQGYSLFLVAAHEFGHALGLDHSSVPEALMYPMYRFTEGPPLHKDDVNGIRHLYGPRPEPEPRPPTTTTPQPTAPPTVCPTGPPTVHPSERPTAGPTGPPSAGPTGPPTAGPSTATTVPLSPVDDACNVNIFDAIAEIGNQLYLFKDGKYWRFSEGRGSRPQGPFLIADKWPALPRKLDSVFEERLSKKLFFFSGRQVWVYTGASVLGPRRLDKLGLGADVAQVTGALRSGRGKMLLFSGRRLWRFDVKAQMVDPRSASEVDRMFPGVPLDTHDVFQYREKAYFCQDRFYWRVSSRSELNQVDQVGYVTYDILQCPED
*1 amine or outer side, *2 acyl side, *3 side chain or, on linkers, in order; H or OH if unused. [ ]: non-standard residue; d: D form. The star is where a group is joined. Dnp = O=[N+]([O-])c1ccc(*)c([N+](=O)[O-])c1; C(Me) = CSC[C@H](N[*:1])C(=O)[*:2]
result.type: Selectivity v. Coll-3 (unitless)
Give bare numbers, in unitless.

// for each binder below, give its Selectivity v. Coll-3
1. Dnp-GPLPFHV[C(Me)]-NH2 (SMILES CSC[C@H](NC(=O)[C@@H](NC(=O)[C@H](Cc1c[nH]cn1)NC(=O)[C@H](Cc1ccccc1)NC(=O)[C@@H]1CCCN1C(=O)[C@H](CC(C)C)NC(=O)[C@@H]1CCCN1C(=O)CNc1ccc([N+](=O)[O-])cc1[N+](=O)[O-])C(C)C)C(N)=O) [Dnp-GPLPFHVC(Me)-NH2]
2. Dnp-GPLGFRG[C(Me)]-NH2 (SMILES CSC[C@H](NC(=O)CNC(=O)[C@H](CCCNC(=N)N)NC(=O)[C@H](Cc1ccccc1)NC(=O)CNC(=O)[C@H](CC(C)C)NC(=O)[C@@H]1CCCN1C(=O)CNc1ccc([N+](=O)[O-])cc1[N+](=O)[O-])C(N)=O) [Dnp-GPLGFRGC(Me)-NH2]
3. Dnp-GPAPLHG[C(Me)]-NH2 (SMILES CSC[C@H](NC(=O)CNC(=O)[C@H](Cc1c[nH]cn1)NC(=O)[C@H](CC(C)C)NC(=O)[C@@H]1CCCN1C(=O)[C@H](C)NC(=O)[C@@H]1CCCN1C(=O)CNc1ccc([N+](=O)[O-])cc1[N+](=O)[O-])C(N)=O) [Dnp-GPAPLHGC(Me)-NH2]
4. Dnp-GPLSIQD-NH2 (SMILES CC[C@H](C)[C@H](NC(=O)[C@H](CO)NC(=O)[C@H](CC(C)C)NC(=O)[C@@H]1CCCN1C(=O)CNc1ccc([N+](=O)[O-])cc1[N+](=O)[O-])C(=O)N[C@@H](CCC(N)=O)C(=O)N[C@@H](CC(=O)O)C(N)=O) [Dnp-GPLSIQD-NH2]
5. Dnp-GPMSYNG-NH2 (SMILES CSCC[C@H](NC(=O)[C@@H]1CCCN1C(=O)CNc1ccc([N+](=O)[O-])cc1[N+](=O)[O-])C(=O)N[C@@H](CO)C(=O)N[C@@H](Cc1ccc(O)cc1)C(=O)N[C@@H](CC(N)=O)C(=O)NCC(N)=O) [Dnp-GPMSYNG-NH2]
6. Dnp-PSGIHL-NH2 (SMILES CC[C@H](C)[C@H](NC(=O)CNC(=O)[C@H](CO)NC(=O)[C@@H]1CCCN1c1ccc([N+](=O)[O-])cc1[N+](=O)[O-])C(=O)N[C@@H](Cc1c[nH]cn1)C(=O)N[C@@H](CC(C)C)C(N)=O) [Dnp-PSGIHL-NH2]

-- reply
[18, 7, 10, 6, 3, 2]
